Below, each entry is listed alongside its reported Emax.
tested on: beta-TC6 cells; assay: Insulin HTRF assay, relative activity Ar normalized to sunitinib; format: cell-based; conditions: Mus musculus, normalized to positive control sunitinib (5 µM = 100%), Table 10

Example results:
Oc1cccc(-c2cnc3ccc(-c4ccc(F)cc4)nn23)c1 [compound 127]    20 to 50%
N#Cc1ccc(-c2cnc3cnc(-c4ccc(CO)cc4)cn23)cc1 [compound 338]    20 to 50%
Fc1ccc(-c2ccc3nnc(-c4cscn4)n3c2)cc1Cl [compound 228]    20 to 50%
c1cc(-c2ccc3nnc(-c4ccc5c(c4)OCO5)n3c2)co1 [compound 171]    50 to 100%
CC(=O)c1cccc(-c2cnc3cnc(-c4cccnc4)cn23)c1 [compound 409]    20 to 50%
NC(=O)c1ccc(-c2ccc3ncc(-c4cccc(OC(F)(F)F)c4)n3n2)cc1 [compound 117]    20 to 50%
c1cc(-c2cn3c(-c4ccc5c(c4)OCO5)cnc3cn2)cs1 [compound 301]    50 to 100%
CNc1ccc2ncc(-c3cccc(C(=O)N(C)C)c3)n2n1 [compound 61]    20 to 50%

**Query** Field request: Emax | item: CN(C)c1ccc(-c2cnc3cnc(-c4cccc(C(N)=O)c4)cn23)cc1 [compound 292]
**Result** 20 to 50%

**Query** Field request: Emax | item: Clc1cccc(-c2cn3c(-c4ccc5c(c4)OCO5)cnc3cn2)c1 [compound 303]
**Result** 50 to 100%

**Query** Field request: Emax | item: CN(C)c1ccc(-c2ccc3nnc(-c4cccnc4)n3c2)cc1 [compound 182]
**Result** 50 to 100%

**Query** Field request: Emax | item: NC(=O)c1cccc(-c2ccc3nnc(-c4cscn4)n3c2)c1 [compound 230]
**Result** 20 to 50%

**Query** Field request: Emax | item: COc1cc(C#Cc2ccc3nnc(-c4ccc(OCCCN(C)C)cc4)n3c2)cc(OC)c1 [compound 239]
**Result** 20 to 50%
